Each entry below carries its recorded Activity.
System: Vero
Assay: Cytotoxicity against African green monkey Vero cells assessed as cell viability after 48 hrs by neutral red uptake assay
Format: cell-based
Conditions: chlorocebus sabaeus

Qu. I'd like to know its Activity. The molecule in question is "COC(=O)[C@H](CCCNC(=N)N)NC(=O)[C@H](Cc1c[nH]c(-c2ccc(OC)cc2)n1)NC(=O)[C@@H](N)CCCNC(=N)N"
Ans. > 10 µg/mL

Continuing:
Qu. I'd like to know its Activity. The molecule in question is "CC(C)(C)OC(=O)N[C@@H](CCCNC(=N)N)C(=O)N[C@@H](Cc1c[nH]c(-c2ccccc2)n1)C(=O)N[C@@H](CCCNC(=N)N)C(=O)NCc1ccccc1"
Ans. > 10 µg/mL

Qu. I'd like to know its Activity. The molecule in question is "COC(=O)[C@H](CCCNC(=N)N)NC(=O)[C@H](Cc1c[nH]c(-c2ccc(-c3ccccc3)cc2)n1)NC(=O)[C@H](CCCNC(=N)N)NC(=O)OC(C)(C)C"
Ans. > 10 µg/mL

###

Experiment: Selectivity index, ratio of cytotoxicity for human BT549 cells to IC50 for Cryptococcus neoformans ATCC 90113
Type: toxicity, cell-based, BT-549
Conditions: read-out: Selectivity Index
Peptide text beside a SMILES is read from it. * marks the point of attachment. Boc = CC(C)(C)OC(=O)*; NHBn = c1ccc(CN*)cc1
Readout label: selectivity ratio

Qu. I'd like to know its selectivity ratio. The molecule in question is "N=C(N)NCCC[C@H](NC(=O)[C@H](Cc1c[nH]c(-c2ccc(-c3ccccc3)cc2)n1)NC(=O)[C@@H](N)CCCNC(=N)N)C(=O)NCc1ccccc1"
Ans. > 100

Qu. I'd like to know its selectivity ratio. The molecule in question is "CC(C)(C)OC(=O)N[C@@H](CCCNC(=N)N)C(=O)N[C@@H](Cc1c[nH]c(-c2ccc(C(C)(C)C)cc2)n1)C(=O)N[C@@H](CCCNC(=N)N)C(=O)NCc1ccccc1"
Ans. > 55.6

Qu. I'd like to know its selectivity ratio. The molecule in question is "COc1ccc(-c2nc(C[C@H](NC(=O)[C@H](CCCNC(=N)N)NC(=O)OC(C)(C)C)C(=O)N[C@@H](CCCNC(=N)N)C(=O)NCc3ccccc3)c[nH]2)cc1"
Ans. > 14.7

Qu. I'd like to know its selectivity ratio. The molecule in question is "COC(=O)[C@H](CCCNC(=N)N)NC(=O)[C@H](Cc1c[nH]c(-c2ccc(C)cc2)n1)NC(=O)[C@H](CCCNC(=N)N)NC(=O)OC(C)(C)C"
Ans. > 1

Qu. I'd like to know its selectivity ratio. The molecule in question is CC(C)(C)OC(=O)N[C@@H](CCCNC(=N)N)C(=O)N[C@@H](Cc1c[nH]cn1)C(=O)N[C@@H](CCCNC(=N)N)C(=O)NCc1ccccc1 (Boc-Arg-His-Arg-NHBn)
Ans. > 1.8

###

Each entry below carries its recorded MIC.
Test system: Cryptococcus neoformans
Assay: Antifungal activity against Cryptococcus neoformans ATCC 90113 after 70 to 74 hrs by CLSI method
Format: functional, organism-based
Details: Cryptococcus neoformans, ATCC 90113
Your answer is read as µg/mL, so omit the unit and give the number.

Qu. I'd like to know its MIC. The compound in question is "CC(C)(C)c1ccc(-c2nc(C[C@H](NC(=O)[C@@H](N)CCCNC(=N)N)C(=O)N[C@@H](CCCNC(=N)N)C(=O)NCc3ccccc3)c[nH]2)cc1"
Ans. 0.16

Qu. I'd like to know its MIC. The compound in question is "CC(C)(C)OC(=O)N[C@@H](CCCNC(=N)N)C(=O)N[C@@H](Cc1c[nH]c(-c2ccccc2)n1)C(=O)N[C@@H](CCCNC(=N)N)C(=O)NCc1ccccc1"
Ans. 1.25

// moving on: another record for MIC
Qu. I'd like to know its MIC. The compound in question is "COC(=O)[C@H](CCCNC(=N)N)NC(=O)[C@H](Cc1c[nH]c(-c2ccc(C(C)(C)C)cc2)n1)NC(=O)[C@H](CCCNC(=N)N)NC(=O)OC(C)(C)C"
Ans. 1.25
